B1: CPEB3 Ribozyme (parent)
chain: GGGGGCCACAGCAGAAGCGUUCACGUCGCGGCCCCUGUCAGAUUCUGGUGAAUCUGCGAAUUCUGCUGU

Variants of: B1
Test: self-cleavage, relative activity (ratio to wild type); higher = more cleavage; co-transcriptional
Assay Endpoint: self-cleavage

Task: Look at this variant and give its reported self-cleavage. U36C G47U
Output: 0.892

Task: Request the reported self-cleavage associated with C35U G48C
Output: 0.964

Task: Please look up its self-cleavage: A15C U67G
Output: 0.934

Task: # self-cleavage lookup, item C29U C63U
Output: 0.253

Task: Look up self-cleavage for this variant: G50C A51U
Output: 0.942

Task: Give its self-cleavage value. Item: U20G C35A
Output: 0.218

Task: Find the recorded self-cleavage belonging to G14A A16G and report it.
Output: 0.463

Task: Find the recorded self-cleavage belonging to U20A A40G and report it.
Output: 0.11

Task: Which self-cleavage value is on record for C22G G41C ?
Output: 0.105

Task: Can you share its self-cleavage? I mean this variant: G1A U69A
Output: 0.0727

Task: Sample A16U U38A — what was its self-cleavage?
Output: 0.424

Task: For G47U G50A , what is its reported self-cleavage?
Output: 1.01

Task: Find the recorded self-cleavage belonging to U26A G65A and report it.
Output: 0.736

Task: Bench note: what self-cleavage did C24A G50A show?
Output: 0.719

Task: Quick check: self-cleavage of C33U U67G ?
Output: 0.982

Task: Dear colleague, I am looking for the recorded self-cleavage of the following variant: C54U A59G
Output: 1.04

Task: What value of measured self-cleavage is listed for C32A U46C ?
Output: 0.776

Task: Reported self-cleavage for G11A U61A : what is it?
Output: 0.452

Task: I have this variant here, C54U U62C , and I need its recorded self-cleavage.
Output: 1.02

Task: Fill in the blank: the reported self-cleavage of G25U C54G is ____.
Output: 0.115

Task: Given the variant G1U C9G , what is its reported self-cleavage?
Output: 0.233

Task: What value of self-cleavage has been recorded for this entry: A8C G41U
Output: 0.78

Task: Any idea what its self-cleavage is? The variant is G25A U26C
Output: 0.297

Task: Fill in: self-cleavage of G50C U62G is ___
Output: 0.755

Task: Would you kindly share the measured self-cleavage for G11U U26A ?
Output: 0.552

Task: Sample G25U G37C — what was its self-cleavage?
Output: 0.0933

Task: self-cleavage for U55A G56U ?
Output: 0.694

Task: # lookup: self-cleavage of G3U U21G
Output: 0.0385

Task: Record request: self-cleavage value, item C12G U69A
Output: 0.881

Task: Returns the measured self-cleavage for the input variant. Input: G2A C33A
Output: 0.0406

Task: I have this variant here, U36A A51C , and I need its recorded self-cleavage.
Output: 0.242

Task: // query self-cleavage value for entry C33A A59C
Output: 0.322

Task: Reported self-cleavage, variant C12A G56A : ____
Output: 0.502

Task: Field request: self-cleavage | item: A16G U61C
Output: 0.951

Task: Entry under review: G14C A23U . Reported self-cleavage?
Output: 0.761

Task: Any idea what its self-cleavage is? The variant is A15U C24G
Output: 0.214

Task: Which value of self-cleavage has been reported for G25A G30C in the records?
Output: 0.219

Task: If you can, please state the reported self-cleavage value of C32G G58A .
Output: 0.44

Task: Entry A40C C57A : reported self-cleavage = ?
Output: 0.2

Task: Report self-cleavage for A15U C34G please.
Output: 0.372

Task: Please report the recorded self-cleavage for C24U C33U .
Output: 0.856

Task: Which self-cleavage is reported for this variant? U20C G31C
Output: 0.148

Task: Entry G41U G58C has what self-cleavage?
Output: 0.94

Task: Look up self-cleavage: G3C G58U
Output: 0.216

Task: Suppose we examine the variant G11A U46A ; what self-cleavage value has been reported?
Output: 0.932

Task: Need self-cleavage, item C7U G19A
Output: 0.113

Task: Value lookup for self-cleavage; key = A8C G37A
Output: 0.207

Task: Recorded self-cleavage for U21C A59U , please?
Output: 0.581

Task: What value of self-cleavage has been recorded for this entry: A8G C22G
Output: 0.0752

Task: Item A40G A42G has what recorded self-cleavage?
Output: 0.822

Task: Looking for the measured self-cleavage of G1A C54G , can you help?
Output: 0.0801

Task: Which self-cleavage reading was recorded for the variant G5A U36A ?
Output: 0.146

Task: Quick one: self-cleavage of C22A U61G ?
Output: 0.25

Task: What value of self-cleavage has been recorded for this entry: C6G C24G
Output: 0.085

Task: Fill in: self-cleavage of U44G U64C is ___
Output: 0.754

Task: For the variant A51C C63A , what self-cleavage is on record?
Output: 0.748

Task: self-cleavage for A8G C33A ?
Output: 0.73

Task: Which self-cleavage value is on record for C6G U38A ?
Output: 0.248

Task: Name the recorded self-cleavage for G3A U61A .
Output: 0.269

Task: Record request: self-cleavage value, item G25U U49G
Output: 0.189

Task: So what does the record say about self-cleavage for A13C G65A ?
Output: 0.431

Task: Fill in: self-cleavage of C34A A42C is ___
Output: 0.46

Task: For the variant G14C U61G , what self-cleavage is on record?
Output: 0.266

Task: Which value of self-cleavage has been reported for G31U C45A in the records?
Output: 0.662

Task: Query: self-cleavage; subject: A13G A60G
Output: 0.66

Task: I'd like to know its self-cleavage. The variant in question is C22G U55A
Output: 0.116

Task: State the recorded self-cleavage for this entry: G37A A52G
Output: 0.268

Task: Query: self-cleavage; subject: C39A G47A
Output: 0.949

Task: May I ask what self-cleavage has been recorded for C24A G28A ?
Output: 0.187

Task: Given the variant G48C C66G , what is its reported self-cleavage?
Output: 0.934

Task: Requested field: self-cleavage. Item: A42U G58C
Output: 0.97

Task: What does the data say about its self-cleavage? Entry: G41A A60U
Output: 0.278

Task: Reported self-cleavage for G48C U55A : what is it?
Output: 1

Task: // returns reported self-cleavage for input A8C C39G
Output: 0.927

Task: So what does the record say about self-cleavage for U21C A40U ?
Output: 0.642

Task: Can you look up the measured self-cleavage of G65C U67C for me?
Output: 0.905

Task: Give its self-cleavage value. Item: C12A A60G
Output: 0.372

Task: I'd like to know its self-cleavage. The variant in question is C45G G47A
Output: 1.03

Task: Given A40U U49G , state its recorded self-cleavage.
Output: 0.816

Task: Param item = C12A G50C ; retrieve measured self-cleavage.
Output: 0.591

Task: Can you look up the measured self-cleavage of C35A U64C for me?
Output: 0.276
